B1: HDV Ribozyme (parent)
chain: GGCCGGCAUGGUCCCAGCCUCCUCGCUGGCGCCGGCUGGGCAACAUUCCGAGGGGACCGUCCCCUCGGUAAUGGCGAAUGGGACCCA

variants of: B1; assay: self-cleavage, relative activity (ratio to wild type); higher = more cleavage; co-transcriptional
VALUE TYPE: self-cleavage
Number only, please.

INSERT INTO assay_data (sequence_code, recorded_number) VALUES
  ('GGCCGGCAUGGUCCCAGCCUCCUCGCUGGCGCCGACUGGGCAACAUUCCGAGGGGACCGUCCCCUCGGUAAUGGCGAAUUGGACCCA [G35A G80U]', 0.151),
  ('GGCCGGCAUGGUCCCAGCCUCCUCGCUGGCGCCGGCUGGGCAACAUUCCGAGGCGACUGUCCCCUCGGUAAUGGCGAAUGGGACCCA [G54C C58U]', 1.11),
  ('GGCCGGCAUGGUCCCAGCCUCCUCGCUGACGCCUGCUGGGCAACAUUCCGAGGGGACCGUCCCCUCGGUAAUGGCGAAUGGGACCCA [G29A G34U]', 0.0601),
  ('GGCCGGCAUGGUCCCAGCCUCCUCGCUGGUGCCGGCUGGGCAACACUCCGAGGGGACCGUCCCCUCGGUAAUGGCGAAUGGGACCCA [C30U U46C]', 0.0723),
  ('GGCCGGCAUGGUCCCAGCCUCCUCGCUGGCGCCGGCUGGGCAACAUUCCGAGGGGACCGUCCCCUCGGUAAUGGCGACUGGGACCGA [A78C C86G]', 0.14),
  ('GGCCGGCAUGGUCCCAGCCUCCUCGCUGGCGCCGGCUGGUCAACAUUCCGAGGGGACCGUCCCCUCAGUAAUGGCGAAUGGGACCCA [G40U G67A]', 0.699),
  ('GGCCGGCCUGGUCCCAGCCUCCUCGCUGGCGCCGGCUGAGCAACAUUCCGAGGGGACCGUCCCCUCGGUAAUGGCGAAUGGGACCCA [A8C G39A]', 0.151),
  ('GGCCGGCUUGGUCCCGGCCUCCUCGCUGGCGCCGGCUGGGCAACAUUCCGAGGGGACCGUCCCCUCGGUAAUGGCGAAUGGGACCCA [A8U A16G]', 0.684);

Kindly review the next variant as well.
INPUT: What does the record list as self-cleavage for GGCCGGCAUGGUCCCAGCCUCCUCGCGGGCGCCGGCUGGGCAACAUUCCGAGGGGACCGUCCCCUCGGUAAUGGCGAAUGGGAACCA [U27G C84A] ?
OUTPUT: 0.831
